System: Streptococcus sp.
ASSAY INFO: in vitro antibacterial evaluation, MIC by broth dilution
Assay type: cell-based
SETUP CONDITIONS: Streptococcus pneumoniae (GC 1894); broth dilution, 18 hours at 35° C.
# MIC Streptococcus pneumoniae (GC 1894) values compiled below
MEASURED ATTRIBUTE: MIC Streptococcus pneumoniae (GC 1894) (µg/mL)

COMPOUND	MEASURED ATTRIBUTE	UNIT TEXT	VALUE RELATION SIGN	QUANTITATIVE READOUT
COc1cc(OC)cc(C2OC3C(OC4C(CO)OC(Oc5ccc(CC6NC(=O)C(C(C)c7ccccc7)NC(=O)CNC(=O)C(CO)NC(=O)C(C(O)C7CNC(=N)N7C7OC(CO)C(O)C(O)C7O)NC(=O)C(C(O)C7CNC(=N)N7)NC6=O)cc5)C(O)C4O)OC(CO)C(O)C3O2)c1 (stereo not drawn) [Example 150a]	MIC Streptococcus pneumoniae (GC 1894)	µg/mL	=	8
CC(c1ccccc1)C1NC(=O)CNC(=O)C(CO)NC(=O)C(C(O)C2CNC(=N)N2C2OC(CO)C(O)C(O)C2O)NC(=O)C(C(O)C2CNC(=N)N2)NC(=O)C(Cc2ccc(OC3OC(CO)C(OC4OC5COC(Cc6ccc(F)cc6)OC5C(O)C4O)C(O)C3O)cc2)NC1=O (stereo not drawn) [Example 121]	MIC Streptococcus pneumoniae (GC 1894)	µg/mL	<	0.06
CCOc1cc(C2OCC3OC(OC4C(CO)OC(Oc5ccc(CC6NC(=O)C(C(C)c7ccccc7)NC(=O)CNC(=O)C(CO)NC(=O)C(C(O)C7CNC(=N)N7C7OC(CO)C(O)C(O)C7O)NC(=O)C(C(O)C7CNC(=N)N7)NC6=O)cc5)C(O)C4O)C(O)C(O)C3O2)ccc1OC (stereo not drawn) [Example 152]	MIC Streptococcus pneumoniae (GC 1894)	µg/mL	=	0.5
CC(c1ccccc1)C1NC(=O)CNC(=O)C(CO)NC(=O)C(C(O)C2CNC(=N)N2C2OC(CO)C(O)C(O)C2O)NC(=O)C(C(O)C2CNC(=N)N2)NC(=O)C(Cc2ccc(OC3OC(CO)C(OC4OC5COC(c6ccc(S(C)(=O)=O)cc6)OC5C(O)C4O)C(O)C3O)cc2)NC1=O (stereo not drawn) [Example 157]	MIC Streptococcus pneumoniae (GC 1894)	µg/mL	=	4
COC1CCC2(C)C(CCC3C2CCC2(C)C(C(C)CCC4OCC5OC(OC6C(CO)OC(Oc7ccc(CC8NC(=O)C(C(C)c9ccccc9)NC(=O)CNC(=O)C(CO)NC(=O)C(C(O)C9CNC(=N)N9C9OC(CO)C(O)C(O)C9O)NC(=O)C(C(O)C9CNC(=N)N9)NC8=O)cc7)C(O)C6O)C(O)C(O)C5O4)CCC32)C1 (stereo not drawn) [Example 130]	MIC Streptococcus pneumoniae (GC 1894)	µg/mL	=	1
CC(c1ccccc1)C1NC(=O)CNC(=O)C(CO)NC(=O)C(C(O)C2CNC(=N)N2C2OC(CO)C(O)C(O)C2O)NC(=O)C(C(O)C2CNC(=N)N2)NC(=O)C(Cc2ccc(OC3OC(CO)C(OC4OC5COC(c6cccc(O)c6)OC5C(O)C4O)C(O)C3O)cc2)NC1=O (stereo not drawn) [Example 136]	MIC Streptococcus pneumoniae (GC 1894)	µg/mL	=	1
CC(c1ccccc1)C1NC(=O)CNC(=O)C(CO)NC(=O)C(C(O)C2CNC(=N)N2C2OC(CO)C(O)C(O)C2O)NC(=O)C(C(O)C2CNC(=NC(=O)C(C)(C)C)N2)NC(=O)C(Cc2ccc(OC3OC(CO)C(OC4OC(CO)C(O)C(O)C4O)C(O)C3O)cc2)NC1=O (stereo not drawn) [Example 155]	MIC Streptococcus pneumoniae (GC 1894)	µg/mL	=	0.12
CCCc1ccc(C2OCC3OC(OC4C(CO)OC(Oc5ccc(CC6NC(=O)C(C(C)c7ccccc7)NC(=O)CNC(=O)C(CO)NC(=O)C(C(O)C7CNC(=N)N7C7OC(CO)C(O)C(O)C7O)NC(=O)C(C(O)C7CNC(=N)N7)NC6=O)cc5)C(O)C4O)C(O)C(O)C3O2)cc1 (stereo not drawn) [Example 140]	MIC Streptococcus pneumoniae (GC 1894)	µg/mL	<	0.5
CC(c1ccccc1)C1NC(=O)CNC(=O)C(CO)NC(=O)C(C(O)C2CNC(=N)N2C2OC(CO)C(O)C(O)C2O)NC(=O)C(C(O)C2CNC(=N)N2)NC(=O)C(Cc2ccc(OC3OC(CO)C(OC4OC5COC(C6CC=CCC6)OC5C(O)C4O)C(O)C3O)cc2)NC1=O (stereo not drawn) [Example 115]	MIC Streptococcus pneumoniae (GC 1894)	µg/mL	<	0.06

Every entry's value here was drawn from patent US6914045B2.
